In vitro activity (%) compared with native peptide: vs GIP by entry:
Biological target: T1, human GIP receptor (human, UniProt P48546 22-466)
T1 sequence (looked up): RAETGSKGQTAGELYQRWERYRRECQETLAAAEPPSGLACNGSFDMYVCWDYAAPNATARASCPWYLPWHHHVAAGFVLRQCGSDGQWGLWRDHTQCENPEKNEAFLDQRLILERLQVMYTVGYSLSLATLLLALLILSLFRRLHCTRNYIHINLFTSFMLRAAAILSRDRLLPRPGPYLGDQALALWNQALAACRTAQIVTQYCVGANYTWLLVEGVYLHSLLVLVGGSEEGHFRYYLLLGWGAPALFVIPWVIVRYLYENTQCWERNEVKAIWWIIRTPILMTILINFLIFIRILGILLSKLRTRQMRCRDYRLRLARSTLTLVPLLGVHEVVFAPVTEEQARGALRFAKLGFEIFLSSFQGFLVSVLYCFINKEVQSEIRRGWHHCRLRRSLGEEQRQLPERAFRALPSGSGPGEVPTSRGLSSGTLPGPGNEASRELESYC
Test: cell-based or functional assay
Positions of bridges follow the written chain, without caps; N, C: chain ends. Non-standard residues stand in square brackets, D forms with d. No end group written: not given here. *: point of attachment. Acetyl(2-(4-imidazolyl)) = O=C(Cc1c[nH]cn1)*; Aib = CC(C)(N)C(=O)O
observed.property: In vitro activity (%) compared with native peptide: vs GIP

{"columns": ["binder", "censoring.operator", "observed.measurement"],
 "data": [
  ["H[Aib]QGTFTSDYSKYLDEKAQKEFVQWLLDTC (bridge 16-20; not fully specified) [triple agonist of SEQ ID NO: 30]", "=", 0.8],
  ["{Acetyl(2-(4-imidazolyl))}-[Aib]QGTFTSDKSKYLDERAAQDFVQWLLDGGPSSGAPPPS (not fully specified) [triple agonist of SEQ ID NO: 62]", "<", 0.1],
  ["{Acetyl(2-(4-imidazolyl))}-[Aib]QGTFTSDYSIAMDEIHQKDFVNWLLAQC (bridge 15-19; not fully specified) [triple agonist of SEQ ID NO: 85]", "=", 0.3]
]}
